Values compiled from paper PMC7822874.

Entries annotated with measured HepG2 viability signal, 3 uM, repeat 2
# System: HepG2-A16-CD81EGFP cells
# measurementParameters: nominal 3 uM (10 mM stock); 4.5 uM for 15 mM, 3.6 uM for 12 mM, 6 uM for 20 mM stock; average of 2 wells; repeat 2
experimentalEndpoint: HepG2 viability signal, 3 uM, repeat 2 (%)

compound	unitName	recordedNumber
Fc1ccc(N2CCCN(C[C@H]3[C@@H]4CNC[C@@H]43)CC2)cc1	%	120.28
CCN(Cc1ccccc1)C(=O)CCC[C@@H]1[C@H]2CCCN3CCC[C@@H](CN1C(=O)c1ccccc1)[C@@H]23	%	100.31
CC1=C[C@@H](CN(C)C)[C@H](C(C)C)C[C@H]1Cc1nc2ncc(Cl)cc2[nH]1	%	100.80
COC(=O)c1ccc2[nH]c(C[C@@H]3C[C@@H](C(C)C)[C@H](CNC4CCCCC4)C=C3C)nc2c1	%	105.05
COc1ccccc1Nc1cnc2ccc(-c3ccc(OC)c(OC)c3)nn12	%	92.36
CN(C)CCCNc1cc(N2CCN(C3CCCCC3)CC2)c2noc3c2c1C(=O)c1ccccc1-3	%	99.71
COc1cccc(C2C(C(=O)Nc3ccc(C)cc3C)=C(C)Nc3c(C(=O)Nc4ccccc4)cnn32)c1 (stereo not shown)	%	98.36
